Item-by-item account of GPI/LMMP IC50
- ASSAYED SYSTEM: µ opioid receptor of the guinea pig isolated ileum (guinea pig, UniProt P97266 1-98)
- Sequence (P97266 whole entry): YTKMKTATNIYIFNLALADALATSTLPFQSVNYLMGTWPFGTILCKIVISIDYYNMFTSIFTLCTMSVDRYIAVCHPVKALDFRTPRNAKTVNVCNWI
- METHOD NOTES: cell-based or functional assay
Square brackets hold non-standard residues; d marks the D form. Ends that are not written are not given here. * marks the point of attachment. OBzl(3,5-(CF3)2) = FC(F)(F)c1cc(CO*)cc(C(F)(F)F)c1
Reply with just the number (in nM).

binder="Y[dA]GFGPLW-{OBzl(3,5-(CF3)2)} (also: TFA salt, also called TY006) [TyrDAlaGlyPheGlyProLeuTrpOBn(CF3)2]" value_observed=384
binder="Y[dA]GFLPLW-{OBzl(3,5-(CF3)2)} (also called TY004) [TyrDAlaGlyPheLeuProLeuTrpOBn(CF3)2]" value_observed=341
binder="YAGFXPLW (D-Ala at 2; Nle at 5 (written X); C-terminal O-3,5-Bzl(CF3)2 ester, also called TY018) [TyrDAlaGlyPheNleProLeuTrpOBn(CF3)2]" value_observed=372
binder="Y[dA]GFMPLW-{OBzl(3,5-(CF3)2)} (also called TY005) [TyrDAlaGlyPheMetProLeuTrpOBn(CF3)2]" value_observed=359

Proceed to the following item.
Problem: Which GPI/LMMP IC50 value is on record for YAGFMPLW (D-Ala at 2; Met(O) at 5; C-terminal O-3,5-Bzl(CF3)2 ester, also called TY023) [TyrDAlaGlyPheMet(O)ProLeuTrpOBn(CF3)2] ?
Solution: 154
